Reported Percent Effect is given for each of the following molecules.
# Tested On: Sialic acid-binding Ig-like lectin 9 (Homo sapiens) (UniProt Q9Y336)
# Sequence (Q9Y336 whole entry): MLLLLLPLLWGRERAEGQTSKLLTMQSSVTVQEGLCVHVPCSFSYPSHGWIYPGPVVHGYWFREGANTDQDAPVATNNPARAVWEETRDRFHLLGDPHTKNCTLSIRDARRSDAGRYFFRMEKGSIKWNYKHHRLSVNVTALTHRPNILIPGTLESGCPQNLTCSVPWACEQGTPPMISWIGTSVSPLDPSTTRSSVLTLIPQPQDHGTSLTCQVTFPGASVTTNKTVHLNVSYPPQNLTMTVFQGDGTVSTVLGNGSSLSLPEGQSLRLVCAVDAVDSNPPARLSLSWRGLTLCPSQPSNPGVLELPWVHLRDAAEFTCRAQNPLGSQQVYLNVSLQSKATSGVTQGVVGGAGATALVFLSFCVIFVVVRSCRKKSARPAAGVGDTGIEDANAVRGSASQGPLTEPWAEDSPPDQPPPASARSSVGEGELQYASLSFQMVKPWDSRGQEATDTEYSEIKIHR
# Protocol: Hs-Siglec9 ALPHAscreen SOP 20170721
# Parameters: scale not given: direction of the effect not stated beside the values
# Recorded Conditions: 10 µM
Measured Attribute: Percent Effect

INSERT INTO results (molecule, value_observed) VALUES
  ('Cc1ncc(CNC(=O)CCc2cccc(F)c2)c(C2CCCN2C)n1 (configuration not stated)', '1.74%'),
  ('Cc1cc(CN(C)C(=O)NC2CCS(=O)(=O)C2)no1 (configuration not stated)', '-9.19%'),
  ('O=C(NC1CC1)[C@H]1CC[C@@H]2[C@@H](CCN2c2ncc(F)cn2)O1', '1.05%'),
  ('Cn1ccnc1CNC(=O)N(CCCO)C1CCCc2ccccc21 (configuration not stated)', '-4.25%'),
  ('COc1ccc(C(=O)N2CC[C@H](CO)[C@H](O)C2)c(C)c1', '10.7%'),
  ('Cc1cc(C)n(-c2cc(N3CCN(C(=O)C(C)(C)C)CC3)nc(C)n2)n1', '6.39%'),
  ('CNC(=O)[C@H]1C[C@@H]2CN(S(=O)(=O)c3ccccc3)C[C@@H]2N1C', '3.49%'),
  ('Cc1nc(CNC(=O)NCC(O)c2ccc(F)cc2F)cs1 (configuration not stated)', '-2.61%'),
  ('Cc1nc(C)n(CC2CCCN2Cc2cscn2)n1 (configuration not stated)', '10.9%'),
  ('CC(=O)NCC(=O)N1CCOC2(CCCN(c3cccnc3)C2)C1 (configuration not stated)', '1.82%'),
  ('O=C1CCCc2nccc(-c3ccccc3)c21', '-10%'),
  ('CC(C(=O)N1CCCC1)N1CCC(c2nccn2CC2CCC2)CC1 (configuration not stated)', '-0.943%'),
  ('Cn1ccc(CN2CCC(OCCc3ccccc3)CC2)cc1=O', '-0.922%'),
  ('Cc1csc([C@@H]2C[C@@H]3CCN(C(=O)c4cc(C)on4)C[C@H]3O2)n1', '-4.81%'),
  ('Cc1noc(C)c1CN1CCN(Cc2ccncc2)c2ncccc2C1', '2.81%'),
  ('Cc1cccc(CNC(=O)CNc2cc(CO)ccc2Cl)c1', '-0.518%'),
  ('CS(=O)(=O)NCc1cc2n(n1)CCCN(Cc1cccc(C#N)c1)C2', '22.8%'),
  ('Cc1cc(C2CCCN2CCCS(=O)(=O)c2ccccc2)no1 (configuration not stated)', '19.5%'),
  ('Cc1cc(S(=O)(=O)N2CCC(S(C)(=O)=O)CC2)ccc1F', '4.37%'),
  ('CC(C)c1cccc(CSc2nnc(CN3CCCC3=O)o2)n1', '-1.76%'),
  ('CS(=O)(=O)NCc1cnc2n1CCN(Cc1ccsc1)CC2', '5.11%'),
  ('CCOCC1CN(C(=O)N(C)C)Cc2nn(C)cc21 (configuration not stated)', '2.29%'),
  ('Cc1nc(C2CCCN(C(=O)c3ccc(OCC4CC4)cc3)C2)no1 (configuration not stated)', '21.9%'),
  ('CC(c1nc(C2CC2)no1)N1CCN(Cc2cccc(C#N)c2)CC1 (configuration not stated)', '-15.7%'),
  ('Clc1ccc(OCCCN2CCN(c3cnccn3)CC2)cc1', '9.41%'),
  ('Cc1nnc(CN2CCN(CCOc3ccccc3C#N)CC2)n1C', '8.94%'),
  ('Cc1cc2ccccc2n1CCC(=O)NCc1ncc[nH]1', '-8.05%'),
  ('CC(C)N(C)CCCNC(=O)c1cnc(-c2ccccc2)nc1', '23.6%'),
  ('Cc1nc(C2CCCN(C(=O)COCc3ccccc3Cl)C2)no1 (configuration not stated)', '4.56%'),
  ('CCS(=O)(=O)NCCNC(=O)c1cc(Cl)c2c(c1)OCCCO2', '31.3%'),
  ('COC(=O)C(C)(C)NC(=O)C1CC(=O)N(C2CCCC2)C1 (configuration not stated)', '5.96%'),
  ('Cc1ncnc2c1CCN(Cc1ccc3c(c1)OCO3)CC2', '8.83%'),
  ('Cc1cc(NC(=O)NCC(C)N2CCc3ccccc32)no1 (configuration not stated)', '2.28%'),
  ('Cc1cc(N2CCC3(CCC(=O)N(CC4CC4)C3)CC2)nc(N)n1', '5.16%'),
  ('CC(C)(C)c1nnc(CN2CCn3c(nnc3C3CC3)C2)o1', '0.00454%'),
  ('C[C@@H]1C(=O)NC[C@H]2CN(CCc3ccccc3)C[C@H]21', '0.474%'),
  ('Cc1cc(CNC2CCCN(c3cccnn3)C2)no1 (configuration not stated)', '5.49%'),
  ('CN(Cc1ncc[nH]1)S(=O)(=O)c1cccc(C(=O)N2CCOCC2)c1', '0.744%'),
  ('Cc1cccc(C(=O)N2C[C@@H](OCc3cccnc3)[C@H]3OCCC[C@@H]32)n1', '-6.23%'),
  ('CC(C)Cc1noc(CN2CCC(NC(=O)c3cccs3)CC2)n1', '8.56%'),
  ('Cc1cccc(C)c1NC(=O)CCNC(=O)c1ccoc1', '-2.96%'),
  ('Cc1noc(CN2CCN(Cc3cccs3)CC2)n1', '-3.65%'),
  ('CCc1ccc(CN2CCC3(CC2)CC(N2CCN(C)CC2)CO3)cc1 (configuration not stated)', '5.26%'),
  ('COc1ccc2c(c1)OC1(CCN(Cc3ccc(F)cc3)CC1)CC2=O', '-1.29%'),
  ('Cc1ccc(-c2nc(CN3CCc4c(ncn4C)C3)cs2)o1', '-16.5%'),
  ('Cc1cc(C)c(OCC(=O)NS(=O)(=O)c2c(C)noc2C)c(C)c1', '-14.2%'),
  ('COc1ccc(C[C@H]2CN(C(=O)CN(C)C)CC[C@H]2OC)cc1', '1.4%');

* * *

# Tested On: Tyrosyl-tRNA synthetase, putative (Trypanosoma cruzi (strain CL Brener))
# Protocol: Trypanosoma cruzi tyrosyl tRNA synthetase (TcYRS) _High Tyrosine SOP; further: in the data most compounds retested in dose-response had high values
# Type: functional
# Parameters: scale not given: direction of the effect not stated beside the values
# Recorded Conditions: 30 µM
Measured Attribute: Percent Effect (%)

INSERT INTO results (compound, value_observed) VALUES
  ('CCn1c(C)cc(C(=O)N2CCCC(n3nc(C)nc3C)C2)c1C (stereo unspecified)', 1.44),
  ('Cc1cnn(CC2CCCN2CCc2nc3ccccc3c(=O)[nH]2)c1 (stereo unspecified)', 3.45),
  ('c1cc(CNCC2OCCc3cn(CC4CCOCC4)nc32)ccn1 (stereo unspecified)', 6.49),
  ('CCc1ccc(OCC(O)CN2CCC(O)CC2)cc1 (stereo unspecified)', -2.86),
  ('Cc1nnsc1C(=O)N1CCC2(CC1)c1nc[nH]c1CCN2CC(C)C', 1.64),
  ('CCCc1n[nH]c(C2CN(CCn3cccn3)CCO2)n1 (stereo unspecified)', 2.1);

* * *

# Tested On: Proteasome subunit beta (Trypanosoma cruzi) (UniProt O96673)
# Sequence (O96673 as listed by the source): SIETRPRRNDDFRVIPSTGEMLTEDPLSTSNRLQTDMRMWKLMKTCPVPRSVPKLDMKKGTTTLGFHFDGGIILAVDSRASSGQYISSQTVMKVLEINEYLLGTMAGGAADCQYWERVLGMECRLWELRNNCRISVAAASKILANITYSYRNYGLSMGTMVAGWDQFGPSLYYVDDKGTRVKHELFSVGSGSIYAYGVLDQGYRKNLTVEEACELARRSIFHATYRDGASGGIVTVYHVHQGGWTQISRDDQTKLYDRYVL
# Protocol: Trypanosoma cruzi proteasome chymotrypsin-like activity (TcProtChymo) assay. Further: in the data most compounds retested in dose-response had high values.
# Type: functional
# Design: scale not given: direction of the effect not stated beside the values
# Recorded Conditions: 9.37 µM
Measured Attribute: Percent Effect (%)

INSERT INTO assay_data (compound, value_observed) VALUES
  ('Cc1ccc(CN2CCc3ncnc(C4CC4)c3CC2)s1', 6.15),
  ('c1ccc(OCc2nnc3n2CCN(CC2CCOCC2)C3)nc1', -0.0883),
  ('Cc1nn(C)cc1CCC(=O)N1CCCC(n2cncn2)C1 (stereo not drawn)', 2.97),
  ('Cc1cc(C2CCCN2CC(=O)N(CCC#N)c2ccccc2F)on1 (stereo not drawn)', 19.4),
  ('CC(=O)c1cccc(NC(=O)CN2CCCCC2C2OCCO2)c1 (stereo not drawn)', 8.37),
  ('CN(C)[C@@H]1CN(Cc2ccoc2)C[C@@H]2CCCO[C@@H]21', 5.74),
  ('Cc1nc(CN2CCOCC3(CCN(c4cccnc4)CC3)C2)cs1', 14.4),
  ('CC(C)n1ccnc1C1CCN(Cc2ccc(Cl)c(F)c2)CC1', 12.5),
  ('Cc1n[nH]c(=O)c2c(NC(=O)CN3CCC(O)CC3)oc(C)c12', 19.4),
  ('CCN(Cc1nc2c(cnn2C)c(=O)[nH]1)Cc1cccs1', 15.3),
  ('CC(NC1(CNC(=O)CC(C)(C)C)CCOCC1)c1ccccc1 (stereo not drawn)', 9.19),
  ('Cc1nc(CN2CCN(Cc3nccn3C)CC2)no1', 4.16),
  ('CS(=O)(=O)CC(=O)N1C[C@@H]2COC[C@]2(c2nnc(C3CC3)o2)C1', 14),
  ('CNc1cncc(C2CCCN2C(=O)c2ccc3oc(C)cc3c2)n1 (stereo not drawn)', 16.6),
  ('CC(CNC(=O)N1CCN(CC(F)F)CC1)Cc1cccs1 (stereo not drawn)', 6.34),
  ('Cc1cccc(Nc2nccnc2C2CCCN2CC(=O)N(C)C)n1 (stereo not drawn)', -3.08),
  ('Cc1nc(C)n(CC2CCCN2Cc2cscn2)n1 (stereo not drawn)', -0.404),
  ('Cc1ccc(C2COCCN2C(=O)c2ccc(N(C)C)cc2)o1 (stereo not drawn)', 15.9),
  ('CN(C)c1cncc(C2CCN(C(=O)CO)CC2)n1', 10.8),
  ('CCc1nc(CN2CCCC(NCc3ccc(C(N)=O)cc3)C2)no1 (stereo not drawn)', -0.246),
  ('COc1ccccc1-c1cc(C(F)(F)F)c2c(C)nn(CC(=O)O)c2n1', 11.5),
  ('c1cnn(Cc2nnc3n2CCCN(CC2CCOCC2)C3)c1', 3.62),
  ('Cc1cnn(CC2CCCN2C(=O)c2ccc3nnc(C)n3c2)c1 (stereo not drawn)', 4.01),
  ('Fc1ccc(-c2n[nH]cc2-c2ccnc(NCCN3CCCC3)n2)cc1', 15.3),
  ('Cc1cc(N2CCN(Cc3ccccc3)CC(O)C2)cc(C)n1 (stereo not drawn)', 2.07),
  ('CC(C)c1nc2n(n1)CC(NCc1ncc(-c3ccccc3)o1)CC2 (stereo not drawn)', 4.12),
  ('O=C(Cc1ccccc1)N1CCC2(CC(=O)N(c3ccsc3)C2)C1 (stereo not drawn)', 13.8),
  ('CCOCC(O)CN1CCN(C(=O)C2CC2)CC1 (stereo not drawn)', 2.52),
  ('CCOc1ccccc1OC1CCN(C(=O)c2nc(=O)[nH][nH]2)CC1', 13.9),
  ('CCn1cnnc1CNC(=O)N1CCOCC1', 2.97),
  ('Cc1csc(N2CCCN(C(=O)C(C(C)C)n3cncn3)CC2)n1 (stereo not drawn)', 10.9),
  ('CCN1Cc2c(C(=O)NCC3CC3)ncn2-c2ccccc2S1(=O)=O', 16),
  ('Cc1cccc(C(=O)N2C[C@@H](OCc3cccnc3)[C@H]3OCCC[C@@H]32)n1', 21.6),
  ('Cc1cc(C)n(CC2CCCCN2C(=O)c2ccc3nncn3c2)n1 (stereo not drawn)', 8.06),
  ('CC(C)c1ncc2c(n1)CN(Cc1nc(-c3ccoc3)no1)CC2', 6.46),
  ('N#Cc1ccnc(N2CCN(C(=O)Cc3ccc4c(c3)CCO4)CC2)c1', 13.4),
  ('Cc1occc1C(=O)NCc1ccc(N2CCCC(C(N)=O)C2)cc1 (stereo not drawn)', 13),
  ('Cc1noc2ncc(C(=O)N3CCCC3c3ccncc3)cc12 (stereo not drawn)', 17.4),
  ('CSc1ccc(-c2nc(CN3CCC(NC(C)=O)C3)c(C)o2)cc1 (stereo not drawn)', 2.93),
  ('O=C(NCc1nncn1-c1ccccc1)C1CC(=O)N(CC2CC2)C1 (stereo not drawn)', -0.901),
  ('O=C1NCC2(CCCN(Cc3ccc(Cl)s3)C2)Oc2ccccc21 (stereo not drawn)', 10.3),
  ('Cc1cc(N2CCC(CC(N)=O)CC2)nc(-c2ccncc2)n1', 11.1),
  ('CCn1ncnc1C1CC(=O)NCc2nc3ccccn3c21 (stereo not drawn)', 4.62),
  ('CCCN1CC(C(=O)Nc2ccccn2)CC1=O (stereo not drawn)', 9.31),
  ('CCCc1nc(C)c(C(=O)NS(=O)(=O)c2ccc(C#N)cc2)s1', 9.14),
  ('Cc1ccccc1-c1cc(C(=O)NCCN2CCCS2(=O)=O)[nH]n1', 5.72),
  ('COCCN1CCCC12CCN(C(=O)CC1CCCC1)CC2', -0.0858),
  ('Cc1nnc(N2CCCC3(CN(Cc4ccc(C)s4)CCO3)C2)o1 (stereo not drawn)', 13.1);
